- Tested on: MCF-7 cells
- assay_protocol: AlamarBlue cell proliferation assay, MCF-7
- Type: cell-based, human
- reported_conditions: 24 hours exposure, mean of three replicates ± standard error, read-out: Half maximal inhibitory concentration (IC50) MCF-7
property_label: IC50 (µM)

molecule	measured_value
N.N.[Cl][Pt][Cl] [Cisplatin, reference compound]	21.1

Each recorded value in this set is attributed to patent US20250041427A1.
